- testedSystem: JNK3 (Homo sapiens, UniProt P53779)
- Construct: One such construct encodes amino acid residues Ser40-Glu402 of JNK3α1 and is preceded by Met and Gly residues; Met-Gly (initiation methionine plus glycine added for the NcoI site)
- Sequence (P53779 40-402): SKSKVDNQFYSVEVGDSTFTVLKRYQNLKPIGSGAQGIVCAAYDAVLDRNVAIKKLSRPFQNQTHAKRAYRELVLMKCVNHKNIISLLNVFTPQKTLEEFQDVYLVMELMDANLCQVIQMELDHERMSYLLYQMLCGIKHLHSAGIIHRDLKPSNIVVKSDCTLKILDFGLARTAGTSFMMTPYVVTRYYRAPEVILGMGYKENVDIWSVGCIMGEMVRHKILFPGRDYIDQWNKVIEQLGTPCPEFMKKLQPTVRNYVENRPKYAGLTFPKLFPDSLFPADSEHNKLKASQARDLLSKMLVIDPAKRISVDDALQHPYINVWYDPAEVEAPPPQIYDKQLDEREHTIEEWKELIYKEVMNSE
- assayProcedure: JNK inhibition assay: spectrophotometric coupled-enzyme assay with activated JNK3
- protocolConditions: activated JNK3 10 nM, 10 μM ATP, 200 μM EGF receptor peptide, 30° C., competitive inhibition model
pKi: −log10 of the molar value.
Reported pKi values are given for each entry in this list.

chemSmiles | pKi
N#Cc1cccc2c1/C(=N/O)C(=O)N2Cc1cc(F)cc2c1OCOC2 | ≤ 6.00
O=C1/C(=N\O)c2ccc(C(F)(F)F)cc2N1Cc1cc(F)cc2c1OCOC2 | > 6.00
O=C1/C(=N\O)c2cc([N+](=O)[O-])ccc2N1Cc1ccc(Cl)cc1Cl | ≤ 6.00
O=C(Nc1ccc2c(c1)N(Cc1cc(F)cc3c1OCOC3)C(=O)/C2=N\O)c1ccco1 | > 6.00
CC(=O)NCC(=O)Nc1ccc2c(c1)N(Cc1cc(F)cc3c1OCOC3)C(=O)/C2=N\O | ≤ 6.00
CS(=O)(=O)c1ccc(CN2C(=O)/C(=N\O)c3ccccc32)cc1 | ≤ 6.00
COc1cc(CN2C(=O)/C(=N\O)c3cc(F)ccc32)cc(OC)c1 | > 6.00
Cc1cc(Cl)cc2c1N(Cc1nc3ccccc3[nH]1)C(=O)/C2=N\O | ≤ 6.00
COc1ccc(-c2ccc3c(c2)N(Cc2cc(F)cc4c2OCOC4)C(=O)/C3=N\O)cc1OC | > 6.00
O=C1/C(=N\O)c2ccc([N+](=O)[O-])cc2N1Cc1cc(F)cc2c1OCOC2 | > 6.00
CC(C)=Cc1cccc2c1/C(=N/O)C(=O)N2Cc1cc(F)cc2c1OCOC2 | > 6.00
O=C(Nc1ccc2c(c1)N(Cc1cc(F)cc3c1OCOC3)C(=O)/C2=N\O)C1CCCC1 | > 6.00
COc1ccccc1-c1nc(CN2C(=O)/C(=N\O)c3ccccc32)no1 | ≤ 6.00
O=C1/C(=N\O)c2cc(Br)ccc2N1Cc1cc(F)cc2c1OCOC2 | > 6.00
COc1ccc(-c2nc(CN3C(=O)/C(=N\O)c4cc(F)ccc43)no2)cc1 | ≤ 6.00
O=C(O)c1ccc(CNc2ccc3c(c2)/C(=N/O)C(=O)N3Cc2cc(F)cc3c2OCOC3)cc1 | ≤ 6.00
CS(=O)(=O)Nc1ccc2c(c1)N(Cc1cc(F)cc3c1OCOC3)C(=O)/C2=N\O | > 6.00

====

- testedSystem: JNK3 (Homo sapiens)
- Construct: One such construct encodes amino acid residues Ser40-Glu402 of JNK3α1 and is preceded by Met and Gly residues; Met-Gly (initiation methionine plus glycine added for the NcoI site)
- assayProcedure: JNK inhibition assay: spectrophotometric coupled-enzyme assay with activated JNK3
- protocolConditions: activated JNK3 10 nM, 10 μM ATP, 200 μM EGF receptor peptide, 30° C., competitive inhibition model
pKi: −log10 of the molar value.
Reported pKi values are given for each entry in this list.
measurementKind: pKi

compound | testValue
COc1ccc(-c2nc(CN3C(=O)/C(=N\O)c4cc(C)cc(C)c43)no2)cc1 [Compound 91] | ≤ 6.00
Cc1cccc(CN2C(=O)/C(=N\O)c3ccccc32)c1 [Compound 19] | ≤ 6.00
O=C1/C(=N\O)c2cc(OC(F)(F)F)ccc2N1Cc1cc(F)cc2c1OCOC2 [Compound 108] | ≤ 6.00
CC(C)(C)NC(=O)c1ccc2c(c1)N(Cc1cc(F)cc3c1OCOC3)C(=O)/C2=N\O [Compound 241] | ≤ 6.00
CC(C)CNC(=O)c1ccc2c(c1)N(Cc1cc(F)cc3c1OCOC3)C(=O)/C2=N\O [Compound 287] | ≤ 6.00
O=C1/C(=N\O)c2ccccc2N1Cc1ccc(Cl)c(Cl)c1 [Compound 5] | > 6.00
C/C=C/c1cccc2c1/C(=N/O)C(=O)N2Cc1cc(F)cc2c1OCOC2 [Compound 326] | > 6.00
O=C1/C(=N\O)c2cc(-c3c(F)cccc3F)ccc2N1Cc1ccccc1 [Compound 157] | ≤ 6.00

====

- testedSystem: JNK3 (Homo sapiens, UniProt P53779)
- Construct: One such construct encodes amino acid residues Ser40-Glu402 of JNK3α1 and is preceded by Met and Gly residues; Met-Gly (initiation methionine plus glycine added for the NcoI site)
- assayProcedure: JNK inhibition assay: spectrophotometric coupled-enzyme assay with activated JNK3
- protocolConditions: activated JNK3 10 nM, 10 μM ATP, 200 μM EGF receptor peptide, 30° C., competitive inhibition model
- Procedure: A BLAST search of the EST database using the published JNK3α1 cDNA as a query identified an EST clone (#632588) that contained the entire coding sequence for human JNK3α1. […] Compounds were assayed for the inhibition of JNK3 by a spectrophotometric coupled-enzyme assay. […] The decrease of absorbance at 340 nm was monitored as a function of time. […]
Reported Ki values are given for each entry in this list.

chemSmiles | Ki
O=C1c2ccccc2C(=O)N1CCCN1C(=O)/C(=N/O)c2ccc(CBr)cc21 | ≥ 1000 nM
O=C(Nc1ccc2c(c1)N(Cc1cc(F)cc3c1OCOC3)C(=O)/C2=N\O)C1CCCCC1 | ≥ 1000 nM
O=C(Nc1ccc2c(c1)N(Cc1cc(F)cc3c1OCOC3)C(=O)/C2=N\O)c1ccccc1F | < 1000 nM
COC(=O)CC(=O)Nc1ccc2c(c1)N(Cc1cc(F)cc3c1OCOC3)C(=O)/C2=N\O | < 1000 nM

====

- testedSystem: JNK3 (Homo sapiens)
- Construct: One such construct encodes amino acid residues Ser40-Glu402 of JNK3α1 and is preceded by Met and Gly residues; Met-Gly (initiation methionine plus glycine added for the NcoI site)
- assayProcedure: JNK inhibition assay: spectrophotometric coupled-enzyme assay with activated JNK3
- protocolConditions: activated JNK3 10 nM, 10 μM ATP, 200 μM EGF receptor peptide, 30° C., competitive inhibition model
pKi: −log10 of the molar value.
Reported pKi values are given for each entry in this list.

molecule | pKi
CCN(Cc1ccccc1)C(=O)c1ccc2c(c1)N(Cc1cc(F)cc3c1OCOC3)C(=O)/C2=N\O [Compound 242] | ≤ 6.00
O=C1/C(=N\O)c2cc(Cl)ccc2N1Cc1ccc(Cl)cc1 [Compound 3] | ≤ 6.00
Cc1cc(Cl)cc2c1N(Cc1cc(F)cc3c1OCOC3)C(=O)/C2=N\O [Compound 103] | > 6.00
O=C1/C(=N\O)c2c(-c3cccc(F)c3)cccc2N1Cc1cc(F)cc2c1OCOC2 [Compound 203] | ≤ 6.00
O=C1/C(=N\O)c2cc(N(CCCc3ccccc3)CCCc3ccccc3)ccc2N1Cc1cc(F)cc2c1OCOC2 [Compound 312] | ≤ 6.00
CC(=O)NCC(=O)NCC(=O)Nc1ccc2c(c1)N(Cc1cc(F)cc3c1OCOC3)C(=O)/C2=N\O [Compound 347] | ≤ 6.00
O=C1/C(=N\O)c2ccccc2N1Cc1cccc([N+](=O)[O-])c1 [Compound 62] | > 6.00
O=C(NCc1ccncc1)c1ccc2c(c1)N(Cc1cc(F)cc3c1OCOC3)C(=O)/C2=N\O [Compound 238] | ≤ 6.00
CCC(C(=O)Nc1ccc2c(c1)N(Cc1cc(F)cc3c1OCOC3)C(=O)/C2=N/O)c1ccccc1 (stereo not shown) [Compound 323] | > 6.00
Cc1cc(C)c2c(c1)/C(=N/O)C(=O)N2Cc1cc(F)cc2c1OCOC2 [Compound 95] | ≤ 6.00
CCNC(=O)c1ccc2c(c1)N(Cc1cc(F)cc3c1OCOC3)C(=O)/C2=N\O [Compound 291] | ≤ 6.00
O=C1/C(=N\O)c2cc(Cl)ccc2N1Cc1cccc(C(F)(F)F)c1 [Compound 15] | ≤ 6.00
COc1ccc(-c2nc(CN3C(=O)/C(=N\O)c4ccccc43)no2)cc1 [Compound 65] | ≤ 6.00
O=C1/C(=N\O)c2ccc(NS(=O)(=O)c3ccc(Cl)cc3)cc2N1Cc1cc(F)cc2c1OCOC2 [Compound 213] | ≤ 6.00
COc1cccc(C(=O)Nc2ccc3c(c2)/C(=N/O)C(=O)N3Cc2ccccc2)c1 [Compound 120] | ≤ 6.00
Cc1ccccc1CNC(=O)c1ccc2c(c1)N(Cc1cc(F)cc3c1OCOC3)C(=O)/C2=N\O [Compound 233] | ≤ 6.00

====

- testedSystem: JNK3 (Homo sapiens)
- Construct: One such construct encodes amino acid residues Ser40-Glu402 of JNK3α1 and is preceded by Met and Gly residues; Met-Gly (initiation methionine plus glycine added for the NcoI site)
- assayProcedure: JNK inhibition assay: spectrophotometric coupled-enzyme assay with activated JNK3
- protocolConditions: activated JNK3 10 nM, 10 μM ATP, 200 μM EGF receptor peptide, 30° C., competitive inhibition model
pKi: −log10 of the molar value.

molecule | testedSystem | pKi
Cc1ccc2c(c1)/C(=N/O)C(=O)N2Cc1ccc(Cl)cc1 | JNK3 (Homo sapiens) | ≤ 6.00
COc1ccccc1-c1nc(CN2C(=O)/C(=N\O)c3cc(F)ccc32)no1 | JNK3 (Homo sapiens) | ≤ 6.00
O=C(Nc1ccc2c(c1)/C(=N/O)C(=O)N2Cc1ccccc1)c1cccc2ccccc12 | JNK3 (Homo sapiens) | ≤ 6.00
COc1ccc(CNc2ccc3c(c2)/C(=N/O)C(=O)N3Cc2cc(F)cc3c2OCOC3)cc1O | JNK3 (Homo sapiens) | ≤ 6.00
COc1cc(CN2C(=O)/C(=N\O)c3ccc(OC)cc32)cc(OC)c1 | JNK3 (Homo sapiens) | > 6.00
O=C1/C(=N\O)c2ccccc2N1Cc1cc(F)cc2c1OCOC2 | JNK3 (Homo sapiens) | > 6.00
O=C(Nc1ccc2c(c1)N(Cc1cc(F)cc3c1OCOC3)C(=O)/C2=N\O)c1ccc(F)cc1F | JNK3 (Homo sapiens) | > 6.00
O=C(Nc1ccc2c(c1)N(Cc1cc(F)cc3c1OCOC3)C(=O)/C2=N\O)c1ccccc1Br | JNK3 (Homo sapiens) | > 6.00
O=C1/C(=N\O)c2ccccc2N1Cc1ccc(Cl)cc1 | JNK3 (Homo sapiens) | ≤ 6.00
COc1ccc(CN2C(=O)/C(=N\O)c3ccccc32)cc1 | JNK3 (Homo sapiens) | ≤ 6.00
Cc1cc(C)c2c(c1)/C(=N/O)C(=O)N2Cc1csc(-c2ccc(Cl)cc2)n1 | JNK3 (Homo sapiens) | ≤ 6.00
Cc1ccc(CN2C(=O)/C(=N\O)c3ccccc32)cc1 | JNK3 (Homo sapiens) | ≤ 6.00
O=C1/C(=N\O)c2ccccc2N1Cc1ncc(C(F)(F)F)cc1Cl | JNK3 (Homo sapiens) | ≤ 6.00
N#Cc1ccccc1CN1C(=O)/C(=N\O)c2ccccc21 | JNK3 (Homo sapiens) | ≤ 6.00
CCc1cccc2c1/C(=N/O)C(=O)N2Cc1cc(F)cc2c1OCOC2 | JNK3 (Homo sapiens) | ≤ 6.00
O=C(c1ccc(F)cc1)c1ccc2c(c1)/C(=N/O)C(=O)N2Cc1cc(F)cc2c1OCOC2 | JNK3 (Homo sapiens) | ≤ 6.00
O=C(c1ccc2c(c1)/C(=N\O)C(=O)N2Cc1cc(F)cc2c1OCOC2)c1ccccc1Cl | JNK3 (Homo sapiens) | > 6.00
COc1cc(CN2C(=O)/C(=N\O)c3cc(NC(=O)c4cccc(OC)c4)ccc32)cc(OC)c1 | JNK3 (Homo sapiens) | ≤ 6.00
COc1ccc(CC(=O)Nc2ccc3c(c2)N(Cc2cc(F)cc4c2OCOC4)C(=O)/C3=N/O)cc1OC | JNK3 (Homo sapiens) | ≤ 6.00
O=C1/C(=N\O)c2c(-c3cc4ccccc4o3)cccc2N1Cc1cc(F)cc2c1OCOC2 | JNK3 (Homo sapiens) | ≤ 6.00
CCC(=O)Nc1ccc2c(c1)N(Cc1cc(F)cc3c1OCOC3)C(=O)/C2=N\O | JNK3 (Homo sapiens) | > 6.00
COc1ccc(CN2C(=O)/C(=N\O)c3cc(C)cc(C)c32)cc1 | JNK3 (Homo sapiens) | ≤ 6.00
O=C(Nc1ccc2c(c1)N(Cc1cc(F)cc3c1OCOC3)C(=O)/C2=N\O)N1CCOCC1 [Compound 257] | JNK3 (Homo sapiens) | ≤ 6.00
COC(=O)c1cccc2c1/C(=N/O)C(=O)N2Cc1cc(F)cc2c1OCOC2 | JNK3 (Homo sapiens) | ≤ 6.00
O=C1/C(=N\O)c2ccccc2N1Cc1cccc(Oc2ccccc2)c1 | JNK3 (Homo sapiens) | ≤ 6.00
O=C1/C(=N\O)c2cc(Cl)ccc2N1Cc1ccccn1 | JNK3 (Homo sapiens) | ≤ 6.00
CC(C)S(=O)(=O)Nc1ccc2c(c1)N(Cc1cc(F)cc3c1OCOC3)C(=O)/C2=N\O | JNK3 (Homo sapiens) | ≤ 6.00
Nc1ccc2c(c1)N(Cc1cc(F)cc3c1OCOC3)C(=O)/C2=N\O | JNK3 (Homo sapiens) | > 6.00
Cc1ccccc1C(=O)c1ccc2c(c1)/C(=N\O)C(=O)N2Cc1cc(F)cc2c1OCOC2 | JNK3 (Homo sapiens) | > 6.00
Cc1cc(C)c2c(c1)/C(=N/O)C(=O)N2Cc1ccc(S(C)(=O)=O)cc1 | JNK3 (Homo sapiens) | ≤ 6.00
O=C1/C(=N\O)c2ccc(Br)cc2N1Cc1cc(F)cc2c1OCOC2 | JNK3 (Homo sapiens) | > 6.00
O=C(Nc1ccc2c(c1)N(Cc1cc(F)cc3c1OCOC3)C(=O)/C2=N\O)c1cc(=O)c2ccccc2o1 | JNK3 (Homo sapiens) | ≤ 6.00
COc1ccc(CN2C(=O)/C(=N\O)c3cc(Cl)cc(C)c32)cc1 | JNK3 (Homo sapiens) | ≤ 6.00
COc1ccc(C(=O)Nc2ccc3c(c2)N(Cc2cc(F)cc4c2OCOC4)C(=O)/C3=N\O)cc1OC | JNK3 (Homo sapiens) | ≤ 6.00
